Attribution: patent US12312293B2

Test: Characteristics of lipid nanoparticles (size, PDI, encapsulation efficiency)
Format: physicochemical
Settings: LNP with DSPC, cholesterol, PEG-1 and the compound
metric: Size (nm)
Respond with the bare value in nm.

structure	unitText	Size (nm)
CCCCC(CCCC)CCOC(=O)CCCCCCCN(CCCCCCCC(=O)OCCC(CCCC)CCCC)CCCNc1c(NC)c(=O)c1=O	nm	77.0
CCCC(CCC)CCOC(=O)CCCCCCCN(CCCCCCCC(=O)OCCC(CCC)CCC)CCCNc1c(NC)c(=O)c1=O	nm	106.7
CCCCCC(CCCCC)CCOC(=O)CCCCCCCN(CCCCCCCC(=O)OC(CCCC)CCCC)CCCNc1c(NC)c(=O)c1=O	nm	63.9
CCCCCC(CCCCC)CCOC(=O)CCCCCCCN(CCCCCCCC(=O)OC(CCCCC)CCCCC)CCCNc1c(NC)c(=O)c1=O	nm	69.4
CCCCCC(CCCCC)CCOC(=O)CCCCCCCN(CCCCCCCC(=O)OCCC(CCCC)CCCC)CCCNc1c(NC)c(=O)c1=O	nm	64.3

// `CCCCC(CCCC)CCOC(=O)CCCCCCCN(CCCCCCCC(=O)OC(CCCC)CCCC)CCCNc1c(NC)c(=O)c1=O` : Size (nm) value = 91.0

So for `CCCCCC(CCCCC)OC(=O)CCCCCCCN(CCCCCCCC(=O)OCCC(CCC)CCC)CCCNc1c(NC)c(=O)c1=O` , the logged Size (nm) turned out to be 83.1

Size (nm) in this record for `CCCCCC(CCCCC)CCOC(=O)CCCCCCCN(CCCCCCCC(=O)OCCC(CCC)CCC)CCCNc1c(NC)c(=O)c1=O` : 58.3

The measured Size (nm) associated with `CCCCC(CCCC)CCOC(=O)CCCCCCCN(CCCCCCCC(=O)OCCC(CCC)CCC)CCCNc1c(NC)c(=O)c1=O` reads 70.5

Size (nm) for `CCCCC(CCCC)OC(=O)CCCCCCCN(CCCCCCCC(=O)OCCC(CCC)CCC)CCCNc1c(NC)c(=O)c1=O` is 145.3
